Target Entity: PSMA (target cells: LNCaP cells) (Homo sapiens, UniProt Q04609)
Construct: Target cells: LNCaP cells (typically 1000-20,000 cells per well); endogenous in cells; host or cells: LNCaP cells (target cells); Jurkat FcγRIIIa/NFAT-luciferase reporter cells also in the well
Sequence (Q04609 whole entry): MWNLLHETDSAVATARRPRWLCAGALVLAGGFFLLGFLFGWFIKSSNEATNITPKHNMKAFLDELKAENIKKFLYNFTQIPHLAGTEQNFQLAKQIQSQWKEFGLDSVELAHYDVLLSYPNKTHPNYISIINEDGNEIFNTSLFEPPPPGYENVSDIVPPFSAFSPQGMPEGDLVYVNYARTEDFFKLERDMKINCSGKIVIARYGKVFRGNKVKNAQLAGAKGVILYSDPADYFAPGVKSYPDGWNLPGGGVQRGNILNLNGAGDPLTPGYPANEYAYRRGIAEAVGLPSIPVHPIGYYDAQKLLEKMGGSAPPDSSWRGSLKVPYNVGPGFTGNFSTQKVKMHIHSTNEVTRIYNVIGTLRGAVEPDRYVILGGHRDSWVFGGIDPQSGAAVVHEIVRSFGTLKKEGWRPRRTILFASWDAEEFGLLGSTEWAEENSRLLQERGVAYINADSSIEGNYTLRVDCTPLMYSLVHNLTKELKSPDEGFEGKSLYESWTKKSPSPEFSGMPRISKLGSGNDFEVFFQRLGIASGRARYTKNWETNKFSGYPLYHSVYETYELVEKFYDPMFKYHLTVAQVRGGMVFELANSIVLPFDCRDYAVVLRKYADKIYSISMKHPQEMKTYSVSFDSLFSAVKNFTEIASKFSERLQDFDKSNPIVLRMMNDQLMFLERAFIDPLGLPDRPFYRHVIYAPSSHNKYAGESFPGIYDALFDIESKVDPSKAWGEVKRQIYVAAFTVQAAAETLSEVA
Assay Comment: Antibody dependent cellular cytotoxicity (ADCC) reporter assay
Assay type: cell-based
Test Parameters: anti-cotinine antibody (SEQ ID NO: 11/12), Jurkat FcγRIIIa NFAT-luciferase reporter cells, 12-18 hours, EC50 in molar, average if more than one run, read-out: ADCC Reporter Assay pEC50 (converted)
Procedure: […] Luminescence signal was measured on a microplate reader capable of measuring luminescence and signal: background was calculated by dividing the signal of a test well by the signal obtained when no compound of formula (I) was included in the assay. […]
# EC50 listing for each entry below
Endpoint Label: EC50 (nM)

| Compound Smiles | Unit Symbol | Measured Number |
| --- | --- | --- |
| CN1C(=O)C[C@H](C(=O)NCCO[C@H]2CC[C@H](OCCCC(=O)N[C@H]3CC[C@H](C(=O)N[C@H]4CC[C@@H](NC(=O)CC[C@H](NC(=O)N[C@@H](CCC(=O)O)C(=O)O)C(=O)O)CC4)CC3)CC2)[C@H]1c1cccnc1 | nM | 50.1 |
| CN1C(=O)C[C@H](C(=O)NCCO[C@H]2CC[C@H](OCCCC(=O)N[C@H]3CC[C@H](C(=O)NCCNC(=O)[C@H](Cc4ccccc4)NC(=O)[C@H](Cc4ccccc4)NC(=O)CCCCCCCNC(=O)CC[C@H](NC(=O)N[C@@H](CCC(=O)O)C(=O)O)C(=O)O)CC3)CC2)[C@H]1c1cccnc1 | nM | 39.8 |
| CN1C(=O)C[C@H](C(=O)NCCOCCOCCOCCOCCOCCOCCOCCOCCOCCOCCOCCOCCC(=O)N[C@@H](Cc2ccc3ccccc3c2)C(=O)NCCCC[C@H](NC(=O)N[C@@H](CCC(=O)O)C(=O)O)C(=O)O)[C@H]1c1cccnc1 | nM | 8.91 |
| CN1C(=O)C[C@H](C(=O)NCCO[C@H]2CC[C@H](OCCCC(=O)N[C@H]3CC[C@H](C(=O)NCCNC(=O)CC[C@H](NC(=O)N[C@@H](CCC(=O)O)C(=O)O)C(=O)O)CC3)CC2)[C@H]1c1cccnc1 | nM | 126 |

---

Target Entity: PSMA (target cells: LNCaP cells) (Homo sapiens, UniProt Q04609)
Construct: Target cells: LNCaP cells (typically 1000-20,000 cells per well); endogenous in cells; host or cells: LNCaP cells (target cells); Jurkat FcγRIIIa/NFAT-luciferase reporter cells also in the well
Assay Comment: Antibody dependent cellular cytotoxicity (ADCC) reporter assay
Type: cell-based
Test Parameters: anti-cotinine antibody (SEQ ID NO: 11/12), Jurkat FcγRIIIa NFAT-luciferase reporter cells, 12-18 hours, EC50 in molar, average if more than one run, read-out: ADCC Reporter Assay pEC50 (converted)

| Compound | EC50, nM |
| --- | --- |
| CN1C(=O)C[C@H](C(=O)NCCNC(=O)[C@H](Cc2ccccc2)NC(=O)[C@H](Cc2ccccc2)NC(=O)CCCCCCCNC(=O)CC[C@H](NC(=O)N[C@@H](CCC(=O)O)C(=O)O)C(=O)O)[C@H]1c1cccnc1 | 39.8 |
| CN1C(=O)C[C@H](C(=O)NCCO[C@H]2CC[C@H](OCCCC(=O)N[C@H]3CC[C@H](C(=O)N[C@H]4CC[C@H](NC(=O)CC[C@H](NC(=O)N[C@@H](CCC(=O)O)C(=O)O)C(=O)O)CC4)CC3)CC2)[C@H]1c1cccnc1 | 50.1 |
| CN1C(=O)C[C@H](C(=O)NCCO[C@H]2CC[C@H](OCCCC(=O)N[C@H]3CC[C@H](C(=O)N4CCN(C(=O)CC[C@H](NC(=O)N[C@@H](CCC(=O)O)C(=O)O)C(=O)O)CC4)CC3)CC2)[C@H]1c1cccnc1 | 50.1 |
| CN1C(=O)C[C@H](C(=O)NCCOCCOCCOCCOCCOCCOCCOCCOCCOCCOCCOCCOCCC(=O)NCCNC(=O)[C@H](Cc2ccccc2)NC(=O)[C@H](Cc2ccccc2)NC(=O)CCCCCCCNC(=O)CC[C@H](NC(=O)N[C@@H](CCC(=O)O)C(=O)O)C(=O)O)[C@H]1c1cccnc1 | 126 |
| CN1C(=O)C[C@H](C(=O)NCCO[C@H]2CC[C@H](OCCCC(=O)N[C@H]3CC[C@H](C(=O)N[C@@H](Cc4ccc5ccccc5c4)C(=O)NCCCC[C@H](NC(=O)N[C@@H](CCC(=O)O)C(=O)O)C(=O)O)CC3)CC2)[C@H]1c1cccnc1 (racemic) | 2.24 |
